Assign fold change of affinity to each entry below.
# study-system: T1, Human CD3eg linker (human)
# T1 construct: Single chain: epsilon and gamma subunits of human CD3 joined by a 29-mer linker, Flag-tag at the C-terminus; also called recombinant human CD3
# T1 chain: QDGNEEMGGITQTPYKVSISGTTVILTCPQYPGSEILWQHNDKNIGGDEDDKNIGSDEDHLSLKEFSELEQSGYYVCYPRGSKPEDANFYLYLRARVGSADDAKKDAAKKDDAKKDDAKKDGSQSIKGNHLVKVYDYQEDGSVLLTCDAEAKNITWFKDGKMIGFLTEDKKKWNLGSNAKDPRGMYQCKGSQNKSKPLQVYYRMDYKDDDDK
# measurement-description: Biacore SPR, vs template H183/L072
# unit: fold | format: bare number

Q: I'd like to know its fold change of affinity. The binder in question is H183/L072 VH F29Q (antibody, name in Kabat numbering, V domains shown) VH: QVQLVESGGGLVQPGRSLRLSCAASGFTQSNAWMHWVRQAPGKGLEWVAQIKDKGNAYAAYYAPSVKGRFTISRDDSKNSIYLQMNSLKTEDTAVYYCHYVHYASASTVLPAFGVDAWGQGTTVTVSS VL: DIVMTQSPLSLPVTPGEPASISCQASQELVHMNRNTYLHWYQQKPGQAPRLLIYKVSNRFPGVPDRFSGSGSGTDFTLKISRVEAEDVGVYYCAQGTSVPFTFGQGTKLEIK
A: 0.2

Q: I'd like to know its fold change of affinity. The binder in question is H183/L072 VH A102L (antibody, name in Kabat numbering, V domains shown) VH: QVQLVESGGGLVQPGRSLRLSCAASGFTFSNAWMHWVRQAPGKGLEWVAQIKDKGNAYAAYYAPSVKGRFTISRDDSKNSIYLQMNSLKTEDTAVYYCHYVHYASASTVLPAFGVDLWGQGTTVTVSS VL: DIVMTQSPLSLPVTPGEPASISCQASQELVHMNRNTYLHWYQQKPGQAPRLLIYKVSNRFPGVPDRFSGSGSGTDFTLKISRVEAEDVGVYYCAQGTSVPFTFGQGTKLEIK
A: 0.7

Q: I'd like to know its fold change of affinity. The binder in question is H183/L072 VH G26P (antibody, name in Kabat numbering, V domains shown) VH: QVQLVESGGGLVQPGRSLRLSCAASPFTFSNAWMHWVRQAPGKGLEWVAQIKDKGNAYAAYYAPSVKGRFTISRDDSKNSIYLQMNSLKTEDTAVYYCHYVHYASASTVLPAFGVDAWGQGTTVTVSS VL: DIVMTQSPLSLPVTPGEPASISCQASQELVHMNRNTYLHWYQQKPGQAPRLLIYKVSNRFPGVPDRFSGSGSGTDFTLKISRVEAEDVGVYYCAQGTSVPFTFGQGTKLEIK
A: 0.1

Q: I'd like to know its fold change of affinity. The binder in question is H183/L072 VH N31V (antibody, name in Kabat numbering, V domains shown) VH: QVQLVESGGGLVQPGRSLRLSCAASGFTFSVAWMHWVRQAPGKGLEWVAQIKDKGNAYAAYYAPSVKGRFTISRDDSKNSIYLQMNSLKTEDTAVYYCHYVHYASASTVLPAFGVDAWGQGTTVTVSS VL: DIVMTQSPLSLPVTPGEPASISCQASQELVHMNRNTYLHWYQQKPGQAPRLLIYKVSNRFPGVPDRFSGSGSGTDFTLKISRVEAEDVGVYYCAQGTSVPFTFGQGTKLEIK
A: 0.5

Q: I'd like to know its fold change of affinity. The binder in question is H183/L072 VH V100iM (antibody, name in Kabat numbering, V domains shown) VH: QVQLVESGGGLVQPGRSLRLSCAASGFTFSNAWMHWVRQAPGKGLEWVAQIKDKGNAYAAYYAPSVKGRFTISRDDSKNSIYLQMNSLKTEDTAVYYCHYVHYASASTVLPAFGMDAWGQGTTVTVSS VL: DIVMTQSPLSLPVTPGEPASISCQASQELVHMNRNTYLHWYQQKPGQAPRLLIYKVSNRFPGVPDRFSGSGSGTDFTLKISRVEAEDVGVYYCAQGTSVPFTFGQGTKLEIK
A: 5.6
